Reported kon values follow for various binders
# tested-on: T1, PHF-tau (paired helical filament tau isolated from Alzheimer's disease brain) (human, UniProt P10636-8 2-441, limits assumed, hyper-phosphorylated, aggregated; sites not listed for the preparation)
# T1 construct: also called enriched PHF-tau; ePHF-tau
# procedure-summary: SPR ProteOn, PHF-tau capture-coupled via HT7, bivalent model
Report as a plain number; the unit M⁻¹ s⁻¹ is understood.

Worked cases, kon given:
[[record]]
binder = "B333 (antibody, human IgG1, kappa, V domains shown, also called PT1B333) VH: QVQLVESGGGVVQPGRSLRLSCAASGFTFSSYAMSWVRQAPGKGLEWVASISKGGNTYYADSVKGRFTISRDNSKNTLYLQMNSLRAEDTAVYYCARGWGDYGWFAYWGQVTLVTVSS VL: DIQMTQSPSSLSASVGDRVTITCKASQDINRWLNWFQQKPGKAPKSLIYRANRLLDGVPSRFSGSGSGTDFTLTISSLQPEDFATYYCLQYDEFPLTFGQGTKLEIKR"
reported = "2.68e+06"

[[record]]
binder = "B711 (antibody, human IgG1, kappa, V domains shown, also called PT1B711) VH: QVQLVESGGGVVQPGRSLRLSCAASGFTFTSYAMSWVRQAPGKGLEWVASITKGGNTYYADSVKGRFTISRDNSKNTLYLQMNSLRAEDTAVYYCARGWGIYGWFAYWGQVTLVTVSS VL: DIQMTQSPSSLSASVGDRVTITCKASQDINRWLNWFQQKPGKAPKSLIYRANRLLDGVPSRFSGSGSGTDFTLTISSLQPEDFATYYCLQYDEFPLTFGQGTKLEIKR"
reported = "6.17e+06"

[[record]]
binder = "B296 (antibody, human IgG1, kappa, V domains shown, Humanized PT3, human IgG1/kappa; also called VH92/VL77; HFA-PT3) VH: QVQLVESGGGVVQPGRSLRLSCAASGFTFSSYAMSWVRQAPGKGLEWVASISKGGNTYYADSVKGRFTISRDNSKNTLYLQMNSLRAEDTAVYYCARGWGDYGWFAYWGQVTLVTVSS VL: DIQMTQSPSSLSASVGDRVTITCKASQDINRYLNWFQQKPGKAPKSLIYRANRLLDGVPSRFSGSGSGTDFTLTISSLQPEDFATYYCLQYDEFPLTFGQGTKLEIKR"
reported = "1.89e+06"


Now consider the entry below.
Lab book: kon of B809 (antibody, human IgG1, kappa, V domains shown, also called PT1B809) VH: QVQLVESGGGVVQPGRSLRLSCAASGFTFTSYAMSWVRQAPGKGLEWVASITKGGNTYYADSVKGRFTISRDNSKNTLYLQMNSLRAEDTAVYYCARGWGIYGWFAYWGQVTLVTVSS VL: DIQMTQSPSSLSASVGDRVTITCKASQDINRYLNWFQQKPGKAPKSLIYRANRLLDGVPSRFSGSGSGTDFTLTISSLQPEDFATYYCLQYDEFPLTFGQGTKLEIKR noted as 6.45e+06
